target: T1, CH2-4 constant domains of human IgE linked to a transmembrane protein, on 293 cells (human, UniProt P01854-1 104-428); test: flow cytometry, 293 cells expressing human IgE CH2-4
T1 construct: domain: CH2-4 constant domains; also called human IgE-expressing 293 cells
T1 sequence (P01854 other isoform, or with tags, fused parts or gaps): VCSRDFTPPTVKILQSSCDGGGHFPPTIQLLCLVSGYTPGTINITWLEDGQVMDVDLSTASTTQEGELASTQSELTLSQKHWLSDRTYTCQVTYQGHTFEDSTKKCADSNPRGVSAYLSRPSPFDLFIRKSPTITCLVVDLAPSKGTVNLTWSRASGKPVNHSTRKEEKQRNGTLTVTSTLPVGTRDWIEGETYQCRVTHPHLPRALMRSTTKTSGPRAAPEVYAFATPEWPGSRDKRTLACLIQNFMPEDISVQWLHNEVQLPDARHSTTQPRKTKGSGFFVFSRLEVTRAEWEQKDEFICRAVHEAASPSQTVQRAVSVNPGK
Below, each of the binders is paired with its reported Kd value.
Answer in nM, number only, no unit symbol.

{"columns": ["binder", "Kd [nM]"],
 "data": [
  ["hzB10v20-NNT (Fc fusion, monomeric) VHH-Fc: EVQLLESGGGEVQPGGSLRLSCVASGLTFSSYNMGWLRQAPGKEREFVGLSGSSSTSTYYADSVKGRFTISRDNSKNTLYLQMNSLKPEDTAVYYCAARRLLSTYWSDRSWDFWGQGTQVTVEPGGPSVFLFPPKPKDTLMISRTPEVTCVVVDVSHEDPEVKFNWYVDGVEVHNAKTKPREEQYNSTYRVVSVLTVLHQDWLNGKEYKCKVSNKALPAPIEKTISKAKGQPREPQVYTLPPSRDELTKNQVNLTCLVKGFYPSDIAVEWESNGQPENNYKTTPPVLDSDGSFFLNSTLTVDKSRWQQGNVFSCSVMHEALHNHYTQKSLSLSPGK", 6.01]
]}

Please turn your attention to the following entry.
Input line: Item hzB10v18-NNT (Fc fusion, monomeric) VHH-Fc: EVQLLESGGGEVQPGGSLRLSCVASGLTFSSYNMGWLRQAPGKEREFVGLSGSSSTSTYYADTVKGRFTISRDNSKNTVYLQMNSLKPEDTAVYYCAARRLLSTYWSDRSWDFWGQGTQVTVEPGGPSVFLFPPKPKDTLMISRTPEVTCVVVDVSHEDPEVKFNWYVDGVEVHNAKTKPREEQYNSTYRVVSVLTVLHQDWLNGKEYKCKVSNKALPAPIEKTISKAKGQPREPQVYTLPPSRDELTKNQVNLTCLVKGFYPSDIAVEWESNGQPENNYKTTPPVLDSDGSFFLNSTLTVDKSRWQQGNVFSCSVMHEALHNHYTQKSLSLSPGK has what recorded Kd?
Output line: 5.07
